// reported MED for each item listed
Test system: Schoenoplectiella juncoides
assay remarks: Herbicidal activity against Schoenoplectiella juncoides assessed as dose required to cause sufficient herbicidal activity after 5 to 7 days
Assay type: functional
measurement kind: MED

{"compound": "COCc1ccsc1S(=O)(=O)NC(=O)Nc1nc(OC)cc(OC)n1", "endpoint value": "0.0391 g/acre"}
{"compound": "COc1nc(NC(=O)NS(=O)(=O)c2ccc3ccccc3c2COCCF)nc(OC)n1", "endpoint value": "<2.5 g/acre"}
{"compound": "COCCOCc1ccsc1S(=O)(=O)NC(=O)Nc1nc(OC)cc(OC)n1", "endpoint value": "0.313 g/acre"}
{"compound": "COc1nc(NC(=O)NS(=O)(=O)c2snc(C)c2COCCF)nc(OC)n1", "endpoint value": "1.25 g/acre"}
{"compound": "COc1cc(OC)nc(NC(=O)NS(=O)(=O)c2sccc2COC(C)(C)C(F)(F)F)n1", "endpoint value": "1.25 g/acre"}
{"compound": "COc1cc(OC)nc(NC(=O)NS(=O)(=O)c2sccc2COCC(F)(F)F)n1", "endpoint value": "0.156 g/acre"}
{"compound": "COc1cc(OC)nc(NC(=O)NS(=O)(=O)c2sccc2CSC#N)n1", "endpoint value": "1.25 g/acre"}
{"compound": "COc1cc(OCC(F)(F)F)nc(NC(=O)NS(=O)(=O)c2sccc2COCCF)n1", "endpoint value": "10 g/acre"}
{"compound": "COc1cc(OC)nc(NC(=O)NS(=O)(=O)c2sccc2COCC(F)F)n1", "endpoint value": "0.0781 g/acre"}
{"compound": "COc1cc(OC)nc(NC(=O)NS(=O)(=O)c2sccc2COC(C)C(F)(F)F)n1 (stereo unspecified)", "endpoint value": "2.5 g/acre"}
{"compound": "CNC(=O)Cc1ccsc1S(=O)(=O)NC(=O)Nc1nc(OC)cc(OC)n1", "endpoint value": "0.625 g/acre"}
{"compound": "COc1nc(NC(=O)NS(=O)(=O)c2csnc2COCCF)nc(OC)n1", "endpoint value": "1.25 g/acre"}
{"compound": "COc1nc(NC(=O)NS(=O)(=O)c2sc3ccccc3c2COCCF)nc(OC)n1", "endpoint value": "<2.5 g/acre"}
{"compound": "C=CCOCc1ccsc1S(=O)(=O)NC(=O)Nc1nc(OC)cc(OC)n1", "endpoint value": "0.156 g/acre"}
{"compound": "O=C(Nc1nc(OC(F)F)cc(OC(F)F)n1)NS(=O)(=O)c1sccc1COCCF", "endpoint value": "5 g/acre"}
{"compound": "COc1cc(OC)nc(NC(=O)NS(=O)(=O)c2ccsc2COCCF)n1", "endpoint value": "0.0781 g/acre"}
{"compound": "COc1cc(OC)nc(NC(=O)NS(=O)(=O)c2sccc2CN(C)C)n1", "endpoint value": "10 g/acre"}
{"compound": "COc1cc(OC)nc(NC(=O)NS(=O)(=O)c2sccc2COCCO)n1", "endpoint value": "0.625 g/acre"}
{"compound": "COc1cc(OC)nc(NC(=O)NS(=O)(=O)c2sccc2CC#N)n1", "endpoint value": "0.156 g/acre"}
{"compound": "COc1nc(NC(=O)NS(=O)(=O)c2ccoc2COCCF)nc(OC)n1", "endpoint value": "0.625 g/acre"}
{"compound": "COc1cc(OC)nc(NC(=O)NS(=O)(=O)c2sccc2COCCCF)n1", "endpoint value": "0.313 g/acre"}
